Hey, just so you know, these numbers are from the supplement of paper PMC12645437.

Biological target: T1, CRBN, Q96SW2;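 further: pooled lentiviral library of zinc finger degron-EGFP fusions in mCherry-positive Jurkat cells, FACS-sorted after compound exposure, with degron abundance counted by next-generation sequencing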
T1 chain: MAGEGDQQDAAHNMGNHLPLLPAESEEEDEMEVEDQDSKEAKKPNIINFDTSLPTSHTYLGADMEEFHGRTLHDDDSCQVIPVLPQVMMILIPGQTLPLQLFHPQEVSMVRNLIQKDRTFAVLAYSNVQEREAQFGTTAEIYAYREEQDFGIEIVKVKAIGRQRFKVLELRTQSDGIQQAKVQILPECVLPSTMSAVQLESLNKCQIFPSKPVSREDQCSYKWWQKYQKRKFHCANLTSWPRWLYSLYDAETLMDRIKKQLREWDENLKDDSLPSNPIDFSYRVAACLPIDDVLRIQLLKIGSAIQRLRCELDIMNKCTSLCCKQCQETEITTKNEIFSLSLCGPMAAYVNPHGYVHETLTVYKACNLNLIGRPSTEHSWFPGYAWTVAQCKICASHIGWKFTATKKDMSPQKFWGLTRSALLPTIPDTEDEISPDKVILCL
Assay: log2 fold change of degron read counts, EGFP-low vs EGFP+ sorted cells (limma voom), compound-induced degradation; higher = more compound-induced degradation of the degron-EGFP fusion; degrons are variants of IKZF1/3 zinc finger 2; compound dose not given here
Conditions: Jurkat; 18 h; compound: compound 33 (diphenyl IMiD analogue)
In all, about 8,300 sequences were measured (“log2 fold change of degron read counts, EGFP-low vs EGFP+ sorted cells (limma voom), compound-induced degradation”: median about -1.1, highest 2% from about 3.2 on). Many of the other results were omitted from the sample, so the highest values are more common in it than they were.
Bucketed by reported log2 fold change of degron read counts, buckets being category 1 (below -0.5), category 2 (-0.5 to below 2), category 3 (2 or more)

| SEQUENCE INPUT | ANSWER LABEL |
| --- | --- |
| LCCEICGFNCTQKGNLLRHIKL [46L_47C_49E_50I_52G_53F_54N_55C_67L_, Q9UKT9] | category 2 |
| FHCDQCGAWFTQKGNLLRHIKL [46F_47H_49D_50Q_52G_53A_54W_55F_67L_, Q9UKT9] | category 1 |
| FQCEQCGAAFTQKGNLLRHIKL [46F_47Q_49E_50Q_52G_53A_54A_55F_67L_, Q9UKT9] | category 2 |
| FICNQCGACFTQKGNLLRHIKL [46F_47I_49N_50Q_52G_53A_54C_55F_67L_, Q9UKT9] | category 1 |

Request: Which class is correct for the following sequence? FWCEVCGAMFTQKGNLLRHIKL [46F_47W_49E_50V_52G_53A_54M_55F_67L_, Q9UKT9]
Result: category 3

Request: Hi there! Could you help me figure out the category for FLCNQCGRKFTQKGNLLRHIKL [46F_47L_49N_50Q_52G_53R_54K_55F_67L_, Q9UKT9] please?
Result: category 1

Request: Hello team, could you let me know which band the following sequence falls into: LHCEICGFHCTQKGNLLRHIKL [46L_47H_49E_50I_52G_53F_54H_55C_67L_, Q9UKT9]
Result: category 2

Request: Given LHCPICGFMCTQKGNLLRHIKL [46L_47H_49P_50I_52G_53F_54M_55C_67L_, Q9UKT9] , name the class its log2 fold change of degron read counts places it in.
Result: category 3

Request: GET /class?item= LECPICGFTCTQKGNLLRHIKL [46L_47E_49P_50I_52G_53F_54T_55C_67L_, Q9UKT9]
Result: category 3

Request: Tag the class for FLCEICGHQFTQKGNLLRHIKL [46F_47L_49E_50I_52G_53H_54Q_55F_67L_, Q9UKT9]
Result: category 1
